All figures here come from patent US20140087995A1.

Please go through the items and note down their pIC50.
Target: T1, human calcitonin receptor (human, UniProt P30988 25-474)
T1 construct: whole, on cells; Assay used cell membranes of the transfected BHK cells; also called hCTR; hCT
T1 sequence (looked up): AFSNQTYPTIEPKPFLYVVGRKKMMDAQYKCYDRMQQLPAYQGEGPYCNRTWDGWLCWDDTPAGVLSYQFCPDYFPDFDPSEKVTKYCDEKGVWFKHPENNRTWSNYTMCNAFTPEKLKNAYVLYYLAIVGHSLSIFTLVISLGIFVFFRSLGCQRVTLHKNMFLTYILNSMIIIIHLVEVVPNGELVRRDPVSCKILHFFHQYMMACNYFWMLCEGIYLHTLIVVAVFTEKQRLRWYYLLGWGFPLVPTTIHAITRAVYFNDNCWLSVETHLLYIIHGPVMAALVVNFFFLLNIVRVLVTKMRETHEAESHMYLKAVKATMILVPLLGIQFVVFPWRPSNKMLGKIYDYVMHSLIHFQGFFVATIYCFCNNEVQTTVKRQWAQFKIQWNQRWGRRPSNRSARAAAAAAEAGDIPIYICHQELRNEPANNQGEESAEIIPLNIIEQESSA
Experiment: SPA radioligand competition (125I-calcitonin), membranes of BHK cells with human calcitonin receptor
Numbered stars: 1 amine (or outer) side, 2 acyl side, 3 side chain; on linkers, the order of the positions; unused ones are H or OH. Bridge positions count the residues as written; N and C are the ends. Side chains are listed from the residue outwards. Ends that are not written are not given here. * marks the point of attachment. C20 diacid = O=C(O)CCCCCCCCCCCCCCCCCCC(=O)*; γGlu = O=C(O)[C@H](CCC(=O)[*:2])N[*:1]; AEEA = NCCOCCOCC(=O)O
The meaning of pIC50 here: minus log10 of the concentration in molar units.

Exam item: Record request: pIC50 value, item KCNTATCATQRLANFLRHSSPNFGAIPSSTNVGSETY (C20 diacid-gGlu on the alpha amino group of the N-terminal residue (Lys1); disulfide Cys2-Cys7; C-terminal amide, Synthetic analogue; also called compound 23) [N^α1-[(4S)-4-carboxy-4-(19-carboxynonadecanoylamino)butanoyl]-[Arg17,Pro21,Pro27,Glu35]-h-amylin]
Marked response: 7.66

Exam item: Now consider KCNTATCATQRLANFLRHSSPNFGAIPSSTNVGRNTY (C20 diacid-gGlu on the alpha amino group of the N-terminal residue (Lys1); disulfide Cys2-Cys7; C-terminal amide, Synthetic analogue; also called compound 39) [N^α1-[(4S)-4-carboxy-4-(19-carboxynonadecanoylamino)butanoyl]-[Arg17,Pro21,Pro27,Arg34]-h-amylin] .
Marked response: 7.71

Exam item: Now consider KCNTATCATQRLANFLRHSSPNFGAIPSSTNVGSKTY (C20 diacid-gGlu on the alpha amino group of the N-terminal residue (Lys1); disulfide Cys2-Cys7; C-terminal amide, Synthetic analogue; also called compound 34) [N^α1-[(4S)-4-carboxy-4-(19-carboxynonadecanoylamino)butanoyl]-[Arg17,Pro21,Pro27,Lys35]-h-amylin] .
Marked response: 7.13

Exam item: Now consider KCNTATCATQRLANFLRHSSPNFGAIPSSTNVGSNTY (C20 diacid-gGlu-2xOEG on the alpha amino group of the N-terminal residue (Lys1); disulfide Cys2-Cys7; C-terminal amide, Synthetic analogue; also called compound 24) .
Marked response: 6.99

Exam item: Now consider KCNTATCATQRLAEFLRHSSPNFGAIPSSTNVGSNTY (C20 diacid-gGlu-2xOEG on the alpha amino group of the N-terminal residue (Lys1); disulfide Cys2-Cys7; C-terminal amide, Synthetic analogue; also called compound 19) .
Marked response: 7.69

Exam item: Now consider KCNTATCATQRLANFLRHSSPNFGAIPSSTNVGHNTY (C20 diacid-gGlu on the alpha amino group of the N-terminal residue (Lys1); disulfide Cys2-Cys7; C-terminal amide, Synthetic analogue; also called compound 40) [N^α1-[(4S)-4-carboxy-4-(19-carboxynonadecanoylamino)butanoyl]-[Arg17,Pro21,Pro27,His34]-h-amylin] .
Marked response: 7.77

Exam item: Now consider K([AEEA-γGlu-C20 diacid])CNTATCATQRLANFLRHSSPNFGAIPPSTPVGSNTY-NH2 (disulfide 2-7, Synthetic analogue; also called compound 53) .
Marked response: 8.27
